Cited source: patent US20190062453A1

- Measured Target: T1, Cynom. DR5 (ECD)-AcTev-Fc-Avi (cynomolgus)
- T1 construct: also called cynomolgus DR5; cy DR5
- Protocol Text: biochemical ELISA, biotinylated antigen on streptavidin plate
Readout Kind: EC50 (ng/mL)
Record the value in ng/mL, omitting the unit from your answer.

Would you please look over these solved cases?
DR5TAA-0013 (antibody, V domains shown, rabbit IgG; also called 298; clone 298) VH: QSLEESGGRLVTPGTPLTLTCTASGFTISSYHMSWVRQAPGKGLEWIGYIYAGSASTWYASWVKGRFTISKTSTTVDLKMTSLTTEDTATYFCARDAGSSYWEFNLWGPGTLVTVSS VL: LVMTQTPSSTSEPVGGTVTIKCQASQSIGSSLSWYQQTPGQPPKLLIYTASSLASSVPKRFSGSRSGTQFTLTISGVQCADAATYYCLGIDDVRRDDGFAFGGGTEVVVKG :: 2.1
DR5TAA-0019 (antibody, V domains shown, rabbit IgG) VH: QSVEESGGRLVTPGTPLTLTCTVSGFSLSNYAMSWVRQAPGKGLEWIGIISSSGTTYYASWAKGRFTISKTSTTVDLKVTSPTTEDTATYFCARETYYGYSYAAGLWGPGTLVTVSS VL: ALVMTQTPSSVSAAVGGTVTINCQASQNIYSNLAWFQQKPGQPPKLLIYETSKLASGVPSRFSGSGSGTEFTLTISDLECDDAATYYCQSSWHSISTDCAFGGGTEVVVKG :: 2.2
DR5TAA-0016 (antibody, V domains shown) VH: QSLEESGGRLVKPDETLTLTCTVSGFSLNNYAMSWVRQAPGKGLEWIGMINKYGTKYYATWTKGRATISKTSTTLDLEITSPTTEDTATYFCARVRYAGDDYAEWLDVWGQGILVTVSS VL: DIVMTQTASPVSAAVGGTVTINCQASQSISSSYVSWYQQKPGQPPKLLIYKASTLASGVPSRFSGSGSGTQLSLTIRGVQCDDAATYYCLYGYSDVSSSEYVFGGGTEVVVRG :: 2.7

Form field: reported EC50 of DR5TAA-0011 (antibody, V domains shown, also called 174; clone 174) VH: QSVEESGGRLVTPGTPLTLTCTVSGFSISRYAMIWVRQAPGEGLEYIGFITSDSSAYYASWAKGRFTISKTSTTVDLKMTSPTTEDTATYFCARYTYSDGTDLWGPGTLVTVSS VL: DIVMTQTPASVSEPVGGTVTIKCQASQSISTYLSWYQQKPGQPPKRLIYKASTLASGVPSRFKGSGSGTDFTLTIRDLECADAATYYCQPNSGIATYGAAFGGGTEVVVKG
4.3

Form field: reported EC50 of DR5TAA-0010 (antibody, V domains shown, rabbit IgG; also called 481; clone 481) VH: QSLEESGGRLVKPDETLTLTCTVSGFSLSSNAISWVRQAPGMGLEWIGIIGSSGYTYYASWAKGRFTVSKTSTTVDLEIASPTTEDTATYFCARGYSGASDYSFNLWGPGTLVTVSS VL: AYDMTQTPDSVEVAVGGTVTIKCQASQTIGDALAWYQQKPGQRPNLLIYRTSTLASGVPSRFSGSGSGTHFTLTISGVECADAATYYCQQGATYNNVLNTFGGGTEVVVKG
8.7

Form field: reported EC50 of DR5TAA-0006 (antibody, V domains shown, rabbit IgG; also called 058; clone 058) VH: QSLEESGGRLVTPGTPLTLTCTASGFSLSSNHMSWVRQAPGKGLEWIGYIYAGSGSAYYASWAKGRFTISRTSTTVDLKMTSLTTEDTATYFCAGDAGSSYWEFNLWGPGTLVTVSS VL: LVMTQTPSSTSEPVGGTVTIKCQASQSIGSSLSWYQQKPGQPPKLLIYHASTLASGVPSRFSGSRSGIQTTLTISGVQCDDAATYYCLGVADARRDDGFAFGGGTEVVVKG
1.6

Form field: reported EC50 of DR5TAA-0005 (antibody, V domains shown, rabbit IgG; also called 039; clone 039) VH: QSLEESGGRLVTPGTPLTLTCTASGFSLSSAYMSWVRQAPGKGLEWIGYIYSGSGSTWYASWVKGRFTISKTSTTVDLKITSPTTEDTATYFCARGYSTMGDLWGPGTLVTVSS VL: QVLTQTPSPVSAAVGGTVTINCQASQSVYNNRLAWYQQKPGQPPKLLIYLASTLASGVPSRFKGSGSGTQFTLTISDLQCDDAATYYCAGGYSGNINAFGGGTEVVVKG
3.7
